- studySystem: human GPR120 (Homo sapiens, UniProt Q5NUL3)
- Sequence (Q5NUL3 whole entry): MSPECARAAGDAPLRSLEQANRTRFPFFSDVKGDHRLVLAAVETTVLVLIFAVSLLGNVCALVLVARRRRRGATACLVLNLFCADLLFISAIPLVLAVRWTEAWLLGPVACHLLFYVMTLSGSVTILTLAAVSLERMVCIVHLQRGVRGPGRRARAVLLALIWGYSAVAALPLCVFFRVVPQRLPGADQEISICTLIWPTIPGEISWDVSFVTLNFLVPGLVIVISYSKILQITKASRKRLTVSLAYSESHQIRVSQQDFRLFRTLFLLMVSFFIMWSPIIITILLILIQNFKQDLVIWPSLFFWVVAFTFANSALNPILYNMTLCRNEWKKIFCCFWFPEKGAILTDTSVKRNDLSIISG
- protocolDescription: Human GPR120 IP1 Assay (inositol phosphate turnover, CisBio IP-One kit)
- conditionsUsed: IP1 accumulation in CHO-K1 cells stably expressing the short form of human GPR120; 60 min compound incubation; 4-parameter fit; read-out: hGPR120 EC50
# note: boundary value 0.05 µM maps to FALSE; EC50 below it maps to TRUE

Consider the worked cases shown below.
> print(dat)
                                   molecule                               studysystem  class
1  O=C(O)CCc1ccc2c(c1)CCN(c1cc(Oc3cnccn3)ccc1F)C2  human GPR120 (Homo sapiens, UniProt Q5NUL3)  FALSE
2  Cc1nc(OC2CCC2)cc(N2CCc3c(ccc(CCC(=O)O)c3F)C2)c1C#N  human GPR120 (Homo sapiens, UniProt Q5NUL3)   TRUE

Consider O=C(O)CCc1ccc2c(c1F)CCN(c1cc(OC3CCC3)cc(F)c1F)C2 . Does its EC50 lie strictly below 0.05 µM?
TRUE

And the next one, Cc1cnc(Oc2cc(C(F)F)c(F)c(N3CCc4cc(CCC(=O)O)ccc4C3)c2)s1 ?
TRUE

And the next one, Cc1ccc(-n2nc(C)c(C#N)c2N2CCc3cc(O)ccc3C2)cc1 ?
FALSE

And the next one, C[C@H]1C[C@H](Oc2cc(F)c(F)c(N3CCc4cc([C@H]5C[C@@H]5C(=O)O)ccc4C3)c2)C1 ?
FALSE

And the next one, O=C(O)CCc1ccc2c(c1F)CCN(c1cc(OC(F)(F)F)cc(Cl)c1F)C2 ?
TRUE

And the next one, CC(Cc1ccc2c(c1F)CCN(c1cc(OC(F)(F)F)cc(Cl)c1F)C2)C(=O)O (single isomer, unassigned) [Example 68] ?
FALSE

And the next one, CO[C@H]1C[C@H](Oc2cc(F)c(F)c(N3CCc4c(ccc([C@@H]5C[C@H]5C(=O)O)c4F)C3)c2)C1 ?
TRUE

And the next one, Cc1cnc(Oc2cc(Cl)c(F)c(N3CCc4c(ccc(CCC(=O)O)c4F)C3)c2)s1 ?
TRUE

And the next one, Cc1nc(N2CCc3c(ccc(CCC(=O)O)c3F)C2)nc(OC2CCC2)c1C#N ?
TRUE

---

- studySystem: human GPR120 (Homo sapiens, UniProt Q5NUL3)
- protocolDescription: Human GPR120 IP1 Assay (inositol phosphate turnover, CisBio IP-One kit)
- conditionsUsed: IP1 accumulation in CHO-K1 cells stably expressing the short form of human GPR120; 60 min compound incubation; 4-parameter fit; read-out: hGPR120 EC50
valueKind: EC50 (nM)
Your answer should be a plain number; it is taken to be in nM.

> print(dat)
                                   compound  reportedvalue
1  Cc1c(CCC(=O)O)ccc2c1CCN(c1cc(OC3CCC3)cc(F)c1C#N)C2 [Example 157]             15

# EC50 lookup, item CC(Cc1ccc2c(c1)CCN(c1cc(OC(F)(F)F)ccc1F)C2)C(=O)O (stereo not drawn) [Example 52]
510

And the next one, Cc1ccc(-n2nc(C)c(F)c2N2CCc3cc(C4CC4C(=O)O)ccc3C2)cc1 (stereo not drawn) [Example 96] ?
834

---

- studySystem: human GPR120 (Homo sapiens, UniProt Q5NUL3)
- protocolDescription: Human GPR120 IP1 Assay (inositol phosphate turnover, CisBio IP-One kit)
- conditionsUsed: IP1 accumulation in CHO-K1 cells stably expressing the short form of human GPR120; 60 min compound incubation; 4-parameter fit; read-out: hGPR120 EC50
# note: boundary value 300 nM maps to not fulfilled; EC50 below it maps to fulfilled

Consider the worked cases shown below.
> print(dat)
                                   molecule      class
1  COc1ccc(-n2nc(C)c(C#N)c2N2CCc3cc(CCCCC(=O)O)ccc3C2)cc1  fulfilled
2  Cc1cnc(Oc2cc(Cl)c(F)c(N3CCc4cc(CCC(=O)O)ccc4C3)c2)s1  fulfilled

Consider O=C(O)CCc1ccc2c(c1)CCN(c1cc(OC3CCC3)cc(F)c1Cl)C2 . Does its EC50 lie strictly below 300 nM?
not fulfilled

And the next one, N#Cc1c(F)cc(OC(F)(F)F)cc1N1CCc2c(ccc([C@H]3C[C@@H]3C(=O)O)c2F)C1 ?
fulfilled

And the next one, O=C(O)CCc1ccc2c(c1)CCN(c1cc(OC3CCC3)cc(Cl)c1F)C2 ?
not fulfilled

And the next one, Cc1ccc(-n2nc(C)c(F)c2N2CCc3cc(CCC(=O)O)ccc3C2)cc1 ?
fulfilled

And the next one, O=C(O)CCc1ccc2c(c1F)CCN(c1cc(C(F)(F)C3CCC3)ccc1F)C2 ?
fulfilled

---

Attribute: log10(EC50)
- studySystem: human GPR120 (Homo sapiens, UniProt Q5NUL3)
- protocolDescription: Human GPR120 IP1 Assay (inositol phosphate turnover, CisBio IP-One kit)
- conditionsUsed: IP1 accumulation in CHO-K1 cells stably expressing the short form of human GPR120; 60 min compound incubation; 4-parameter fit; read-out: hGPR120 EC50
Note the log scale: values are log10 of EC50 expressed in nM.

Please review the entries below; each comes with its answer.
> print(dat)
                                   molecule  reportedvalue
1  CO[C@H]1C[C@H](Oc2cc(F)c(F)c(N3CCc4cc(CCc5nnn[nH]5)ccc4C3)c2)C1           2.61
2  CO[C@H]1C[C@H](Oc2cc(F)c(F)c(N3CCc4cc([C@@H]5C[C@H]5C(=O)O)ccc4C3)c2)C1           2.10
3  O=C(O)CCc1ccc2c(c1Cl)CCN(c1cc(OC(F)(F)F)ccc1F)C2           3.07

# log10(EC50) lookup, item O=C(O)[C@@H]1C[C@H]1c1ccc2c(c1F)CCN(c1cc(OC(F)(F)F)cc(Cl)c1F)C2
1.51

And the next one, CO[C@H]1C[C@H](Oc2ccc(C#N)c(N3CCc4cc(CCC(=O)O)ccc4C3)c2)C1 ?
2.78
